The measurements presented in this section are drawn from patent US8791132B2.

target: human recombinant adrenergic α2B receptor (Homo sapiens)
Construct: expressed in transfected cells; host or cells: CHO-K1
Sequence (P18089 1-450): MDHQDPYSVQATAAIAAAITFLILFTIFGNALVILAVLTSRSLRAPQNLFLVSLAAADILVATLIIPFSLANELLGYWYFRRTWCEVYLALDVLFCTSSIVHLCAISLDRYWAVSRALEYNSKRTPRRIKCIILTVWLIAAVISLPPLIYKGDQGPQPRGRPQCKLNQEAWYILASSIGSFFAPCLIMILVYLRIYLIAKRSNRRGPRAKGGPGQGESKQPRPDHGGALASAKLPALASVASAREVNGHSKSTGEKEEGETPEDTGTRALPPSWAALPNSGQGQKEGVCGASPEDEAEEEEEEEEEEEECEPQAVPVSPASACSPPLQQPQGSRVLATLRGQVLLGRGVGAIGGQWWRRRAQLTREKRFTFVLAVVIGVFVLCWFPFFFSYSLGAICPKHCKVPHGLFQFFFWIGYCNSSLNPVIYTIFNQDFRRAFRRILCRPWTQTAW
assay-protocol: Radioligand binding, adrenergic α2B ([3H]Rauwolscine)
assay-conditions: compound at 0.1 μM; [3H]Rauwolscine; repeat assays, each datapoint shown; read-out: Percentage inhibition of ligand binding, Adrenergic α2B
reported-metric: inhibition at 0.1 µM (%)

compound: CN1CCc2c(c3cc(Cl)ccc3n2CC(O)c2ccncc2)C1 (single isomer, unassigned) [4a]
inhibition at 0.1 µM, %: 104
--
compound: Cc1cnc2c(c1)c1c(n2CCc2ccc(C)nc2)CCN2CCCC12 (single isomer, unassigned) [74a]
inhibition at 0.1 µM, %: 101
--
compound: Cc1ccc2c(c1)c1c(n2CC(C)(O)c2cccnc2)CCN(C)C1 (centres unmarked)
inhibition at 0.1 µM, %: 96
--
compound: Cc1ccc2c(c1)c1c(n2CC(O)c2ccncc2)CCNC1 (single isomer, unassigned) [39a]
inhibition at 0.1 µM, %: 92
--
compound: Cc1ccc2c(c1)c1c(n2CC2(c3ccccc3)OCCO2)CCN(C)C1
inhibition at 0.1 µM, %: 78
--
compound: CN1CCc2c(c3cc(Cl)ccc3n2CC(C)(O)c2ccncc2)C1 (centres unmarked)
inhibition at 0.1 µM, %: 74
--
compound: Cc1cnc2c(c1)c1c(n2CC(C)(O)c2cccnc2)CCN2CCCC12 (single isomer, unassigned) [26b]
inhibition at 0.1 µM, %: 100
--
compound: Cc1ccc2c(c1)c1c(n2C2=C(c3cn[nH]c3)CCC2)CCN(C)C1
inhibition at 0.1 µM, %: 91
